Hey, just so you know, these numbers are from patent US20230408517A1.

target: UK variant RBD (R319-F541 with N501Y), C-terminal 6-His (SARS-CoV-2, UniProt P0DTC2 319-541); assay: lateral flow NC50, RBD-AuNP vs immobilised ACE2
reported_endpoint: IC50 (µg/mL)
Response body: numeric value in µg/mL, unit text excluded.

# count of solved cases: 2
1035709 (antibody, V domains shown) VH: EVQLQQSGPELVKPGASVKISCKTSGYTFTEYTMHWVKQSHGKSLEWIGGINPNIVDTGYNQKFKGKATLTVDKSSSTAYMELRSLTSEDSAVYYCARDGYPLYYAMDYWGQGTSVTVSS VL: DIQMTQSPSSLSASLGERVSLTCRASQEISGYLSWLQQKPDGTIKRLIYAASTLDSGVPKRFSGSRSGSDYSLTISSLESEDFADYYCLQYASYPWTFGGGTKLEIK
1.08
1035740 (antibody, V domains shown) VH: EVLLQQSGPELVKPGASVKIPCKASGYTFTDYNMDWVKQSHGKSLEWIGDINPNNGFTIYNQKFKGKATLTVDKSSSTAYMELRSLTSEDTAVYYCAREGYGNYFDYWGQGTTLTVSS VL: DVLLTQSPAILSVSPGERVSFSCRASQSIGTSLHWYQQRTNGSPRLLIKYVSESISGIPSRFSGSGSGTDFTLSINSVESEDIADYYCQQSSSWPTTFGAGTKLELK
1.35

INPUT: Look up IC50: 1035240 (antibody, V domains shown) VH: QVQLQQSGAELARPGASVKMSCKASGYTFTTYTMHWVKQRPGQGLEWIGYINPSSGYTNYNQKFKDKATLTADTSSSTAYMQLSSLTSEDSAVYYCARRNPLYAMDYWGQGTSVTVSS VL: DIKMTQSPSSMYASLGERVTITCKASQDINSYLNWFQQKPGKSPKTLIYRANRLVDGVPSRFSGSGSGQDYSLTISSLEYEDMGIYYCLQYDEFPYTFGGGTKLEIK
OUTPUT: 0.86
